# studySystem: Dual specificity protein kinase CLK2 (Homo sapiens)
# measurementConditions: at 0.1 µM
# Description: GSK_PKIS: CLK2 mean inhibition at 0.1 uM [Nanosyn]
measurementKind: inhibition (%)
Respond numerically; units are % and should not be typed.

Completed entries (count: 8):
> print(dat)
                                   compound  measurementkind  units  experimentalvalue
1  Cc1ccc(Nc2ccnc(Nc3cccc(C(N)=O)c3)n2)cc1O       inhibition      %               1.32
2  Cc1ccc2c(-c3ccnc(Nc4ccc5c(c4)OCCO5)n3)c(-c3ccc(C(F)(F)F)cc3)nn2n1       inhibition      %               1.25
3  CS(=O)(=O)Nc1cccc(-c2ccc3c(NC(=O)C4CC4)n[nH]c3c2)c1       inhibition      %                2.8
4  ON=C1CCc2cc(-c3nc(C4CCNCC4)[nH]c3-c3ccncc3)ccc21       inhibition      %               2.05
5  CN(C)C(=O)O[C@@H]1CN[C@@H](C#Cc2cc3ncnc(Nc4ccc(OCc5cccc(F)c5)c(Cl)c4)c3s2)C1       inhibition      %               0.95
6  C[C@@H](Oc1cc(-n2cnc3ccc(OCC4CCN(C)CC4)cc32)sc1C(N)=O)c1ccccc1C(F)(F)F       inhibition      %               1.74
7  NS(=O)(=O)c1ccc(N/N=C2\C(=O)Nc3ccc(Cl)cc32)cc1       inhibition      %                0.8
8  Nc1nccc(-c2c(-c3ccc(F)cc3)nn3cc(C(F)(F)F)ccc23)n1       inhibition      %               1.36

Request: For the compound shown here, `COc1cccc(-n2ncc3c(N/N=C/c4ccc(S(C)(=O)=O)cc4)ncnc32)c1` , give the reported inhibition.
Response: 8.7

Request: Field request: inhibition | item: `NS(=O)(=O)c1cccc(-c2cc3ccncc3cc2OCc2ccccc2)c1`
Response: 1.16

Request: // returns reported inhibition for input `Nc1nccc(-c2c(-c3ccc(F)cc3)ncn2CCCN2CCOCC2)n1`
Response: 0.47

Request: # get_value(readout='inhibition', item= CCCN1CCCC(c2ccc(Nc3nc(Nc4cc(F)ccc4C(N)=O)c4cc[nH]c4n3)c(OC)c2)C1 (centres undefined) )
Response: 67.3

Request: Need inhibition, item `Cc1cc(Cl)cc2c1NC(=O)C2=NNc1ccc(S(N)(=O)=O)cc1`
Response: 0.86

Request: Report inhibition for `CN1CCN(C(=O)c2ccc(NC(=O)Nc3ccc(N(C)c4ccnc(Nc5ccc(CS(C)(=O)=O)cc5)n4)cc3)cc2)CC1` please.
Response: 0.17

Request: # get_value(readout='inhibition', item= `COc1cc2ncnc(Nc3ccc4c(cnn4Cc4ccccc4)c3)c2cc1OC` )
Response: -0.74

Request: Can you look up the measured inhibition of `Cc1ccc(O)cc1Nc1ccnc2ccc(S(C)(=O)=O)cc12` for me?
Response: 2.47

Request: Which measured inhibition value corresponds to `NC(=O)c1sc(-n2cnc3ccccc32)cc1OCc1ccccc1Br` ?
Response: 1.89

Request: # get_value(readout='inhibition', item= `CN(c1ccc(NC(=O)Nc2ccc(OC(F)(F)F)cc2)cc1)c1ccnc(Nc2cccc(S(N)(=O)=O)c2)n1` )
Response: 1.61

Request: May I ask what inhibition has been recorded for `COc1ccc(-c2nn3ncccc3c2-c2ccnc(Nc3cccc(C(F)(F)F)c3)n2)cc1` ?
Response: 0.06

----------
# studySystem: Serine/threonine-protein kinase SIK2 (Homo sapiens) (UniProt Q9H0K1)
# Sequence (Q9H0K1 whole entry, looked up): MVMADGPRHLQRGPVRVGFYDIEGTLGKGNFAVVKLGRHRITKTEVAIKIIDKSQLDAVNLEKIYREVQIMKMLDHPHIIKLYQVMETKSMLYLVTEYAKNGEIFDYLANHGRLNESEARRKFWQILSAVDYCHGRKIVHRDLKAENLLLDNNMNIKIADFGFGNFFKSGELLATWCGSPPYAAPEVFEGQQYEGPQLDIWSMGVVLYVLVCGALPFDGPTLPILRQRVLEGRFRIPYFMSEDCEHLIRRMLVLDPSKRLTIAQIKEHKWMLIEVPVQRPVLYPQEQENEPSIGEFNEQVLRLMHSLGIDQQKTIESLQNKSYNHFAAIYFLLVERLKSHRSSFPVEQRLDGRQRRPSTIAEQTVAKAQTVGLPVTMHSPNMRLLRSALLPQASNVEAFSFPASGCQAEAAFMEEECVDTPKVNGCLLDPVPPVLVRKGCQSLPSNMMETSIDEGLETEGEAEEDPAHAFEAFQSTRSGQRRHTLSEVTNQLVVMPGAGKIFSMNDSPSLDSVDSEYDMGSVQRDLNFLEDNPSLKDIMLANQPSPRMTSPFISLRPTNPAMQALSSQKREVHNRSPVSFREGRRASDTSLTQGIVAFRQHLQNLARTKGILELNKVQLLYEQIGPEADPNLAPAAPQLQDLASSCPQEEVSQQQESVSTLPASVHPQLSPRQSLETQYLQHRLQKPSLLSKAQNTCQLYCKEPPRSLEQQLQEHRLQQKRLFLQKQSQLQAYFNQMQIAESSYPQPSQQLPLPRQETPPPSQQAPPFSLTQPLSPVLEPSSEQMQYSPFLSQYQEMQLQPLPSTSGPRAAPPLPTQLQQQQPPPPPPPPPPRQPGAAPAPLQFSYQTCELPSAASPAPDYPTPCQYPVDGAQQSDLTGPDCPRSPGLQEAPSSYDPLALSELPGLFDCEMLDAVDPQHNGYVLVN
# measurementConditions: at 0.1 µM
# Description: GSK_PKIS: SNF1LK2 (QIK) mean inhibition at 0.1 uM [Nanosyn]
measurementKind: inhibition (%)
Numbers only here, please. The scale is %.

Request: Enter reported inhibition observed with Serine/threonine-protein kinase SIK2 (Homo sapiens) (UniProt Q9H0K1) for `CC(C)c1ccc2c(c1)NC(=O)/C2=N/Nc1ccc(S(N)(=O)=O)cc1`
Response: 2.29

Request: Observed inhibition on Serine/threonine-protein kinase SIK2 (Homo sapiens) (UniProt Q9H0K1) for `Cc1cc(-c2ccccn2)cc(C)c1/C=C/c1cncc(-c2nn[nH]n2)c1` , please.
Response: 5.34

Request: # value lookup — system Serine/threonine-protein kinase SIK2 (Homo sapiens) (UniProt Q9H0K1), readout inhibition, item `COc1ccc(-c2nn3ncccc3c2-c2ccnc(Nc3cccc(C(F)(F)F)c3)n2)cc1`
Response: 4.76

Request: # returns recorded inhibition (system: Serine/threonine-protein kinase SIK2 (Homo sapiens) (UniProt Q9H0K1)) for `COc1cccc(-n2ncc3c(N/N=C/c4ccc(C)cc4)ncnc32)c1`
Response: 8.99

Request: Identify the measured inhibition of `O=S(=O)(CCOCc1ccc(-c2ccc3ncnc(Nc4ccc(OCc5cccc(F)c5)c(Cl)c4)c3c2)o1)c1ccccc1` for Serine/threonine-protein kinase SIK2 (Homo sapiens) (UniProt Q9H0K1).
Response: 0.88

Request: Find inhibition (Serine/threonine-protein kinase SIK2 (Homo sapiens) (UniProt Q9H0K1)) for the entry `CN(C)CCCn1c(-c2nonc2N)nc2cnccc21`
Response: -0.97

Request: For the record `NS(=O)(=O)c1ccc(N/N=C2\C(=O)Nc3ccc(Cl)cc32)cc1` , what value of inhibition is listed for Serine/threonine-protein kinase SIK2 (Homo sapiens) (UniProt Q9H0K1)?
Response: 3.51

----------
# studySystem: Tyrosine-protein kinase ZAP-70 (Homo sapiens) (UniProt P43403)
# Sequence (P43403 whole entry): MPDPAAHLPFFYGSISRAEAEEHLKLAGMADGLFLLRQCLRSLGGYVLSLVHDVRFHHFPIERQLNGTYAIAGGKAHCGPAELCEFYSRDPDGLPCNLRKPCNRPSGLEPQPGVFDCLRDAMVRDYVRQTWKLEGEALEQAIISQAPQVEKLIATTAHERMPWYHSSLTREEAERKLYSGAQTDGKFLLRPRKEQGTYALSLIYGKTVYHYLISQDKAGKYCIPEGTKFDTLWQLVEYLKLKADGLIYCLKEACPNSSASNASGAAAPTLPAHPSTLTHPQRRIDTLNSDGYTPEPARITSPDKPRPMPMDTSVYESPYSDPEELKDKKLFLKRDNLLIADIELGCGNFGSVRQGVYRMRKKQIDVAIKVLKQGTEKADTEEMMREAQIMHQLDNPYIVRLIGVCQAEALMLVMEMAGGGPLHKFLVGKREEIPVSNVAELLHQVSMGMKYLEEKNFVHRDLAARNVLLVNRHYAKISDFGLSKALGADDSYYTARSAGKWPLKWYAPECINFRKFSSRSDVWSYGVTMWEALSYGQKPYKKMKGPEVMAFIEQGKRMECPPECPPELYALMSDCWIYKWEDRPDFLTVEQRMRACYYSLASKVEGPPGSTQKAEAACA
# measurementConditions: at 1 µM
# Description: GSK_PKIS: ZAP70 mean inhibition at 1 uM [Nanosyn]
measurementKind: inhibition (%)
Reply numerically in %, unit not repeated.

> print(dat)
                                   compound  units  experimentalvalue
1  COc1cc2ncnc(Nc3ccc4c(cnn4Cc4ccccc4)c3)c2cc1OC      %               2.96
2  COc1ccc(-c2nn3ncccc3c2-c2ccnc(Nc3cccc(C(F)(F)F)c3)n2)cc1      %                1.1
3   NC(=O)c1cccc(Nc2nccc(Nc3cccc(F)c3)n2)c1      %               4.21

Below: the item to evaluate.
Request: Entry CCCN1CCCC(c2ccc(Nc3nc(Nc4cc(F)ccc4C(N)=O)c4cc[nH]c4n3)c(OC)c2)C1 (stereo unspecified) : reported inhibition = ?
Response: 28.7

----------
# studySystem: Homeodomain-interacting protein kinase 1 (Homo sapiens);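 further: each value is a mean percent inhibition of HIPK1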
# measurementConditions: at 0.1 µM
measurementKind: inhibition (%)
# number only, unit % dropped from output

Known results for molecules:
> print(dat)
                            structurestring                               studysystem  measurementkind  experimentalvalue
1  Cc1ccc2c(-c3ccnc(Nc4cccc(C(F)(F)F)c4)n3)c(-c3ccccc3)nn2n1  Homeodomain-interacting protein kinase 1 (Homo sapiens)       inhibition               0.33
2  c1ccc(Cc2nc3ccc(Nc4ncnc5ccccc45)cc3[nH]2)cc1  Homeodomain-interacting protein kinase 1 (Homo sapiens)       inhibition               6.99
3   Cc1ccc(C(=O)NC2CC2)cc1-c1ccc2[nH]ncc2c1  Homeodomain-interacting protein kinase 1 (Homo sapiens)       inhibition              -4.85
4  COc1cc(Nc2nccc(-c3cnn4ncccc34)n2)cc(OC)c1  Homeodomain-interacting protein kinase 1 (Homo sapiens)       inhibition               86.8
5  NS(=O)(=O)c1ccc(Nc2cc(-c3cccc(O)c3)n[nH]2)cc1  Homeodomain-interacting protein kinase 1 (Homo sapiens)       inhibition              -1.93

Request: What inhibition value was documented for this molecule, `Cc1ccc(O)cc1Nc1ccnc2ccc(S(C)(=O)=O)cc12` ?
Response: -0.12

Request: Which inhibition reading was recorded for the molecule `CC(C)c1ccc2c(c1)NC(=O)/C2=N/Nc1ccc(S(N)(=O)=O)cc1` ?
Response: -1.88

----------
# studySystem: ALK tyrosine kinase receptor (Homo sapiens) (UniProt Q9UM73);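 further: values are mean percent inhibition of ALK, screened as part of the GSK PKIS panel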
# Sequence (Q9UM73 19-1620 limits assumed): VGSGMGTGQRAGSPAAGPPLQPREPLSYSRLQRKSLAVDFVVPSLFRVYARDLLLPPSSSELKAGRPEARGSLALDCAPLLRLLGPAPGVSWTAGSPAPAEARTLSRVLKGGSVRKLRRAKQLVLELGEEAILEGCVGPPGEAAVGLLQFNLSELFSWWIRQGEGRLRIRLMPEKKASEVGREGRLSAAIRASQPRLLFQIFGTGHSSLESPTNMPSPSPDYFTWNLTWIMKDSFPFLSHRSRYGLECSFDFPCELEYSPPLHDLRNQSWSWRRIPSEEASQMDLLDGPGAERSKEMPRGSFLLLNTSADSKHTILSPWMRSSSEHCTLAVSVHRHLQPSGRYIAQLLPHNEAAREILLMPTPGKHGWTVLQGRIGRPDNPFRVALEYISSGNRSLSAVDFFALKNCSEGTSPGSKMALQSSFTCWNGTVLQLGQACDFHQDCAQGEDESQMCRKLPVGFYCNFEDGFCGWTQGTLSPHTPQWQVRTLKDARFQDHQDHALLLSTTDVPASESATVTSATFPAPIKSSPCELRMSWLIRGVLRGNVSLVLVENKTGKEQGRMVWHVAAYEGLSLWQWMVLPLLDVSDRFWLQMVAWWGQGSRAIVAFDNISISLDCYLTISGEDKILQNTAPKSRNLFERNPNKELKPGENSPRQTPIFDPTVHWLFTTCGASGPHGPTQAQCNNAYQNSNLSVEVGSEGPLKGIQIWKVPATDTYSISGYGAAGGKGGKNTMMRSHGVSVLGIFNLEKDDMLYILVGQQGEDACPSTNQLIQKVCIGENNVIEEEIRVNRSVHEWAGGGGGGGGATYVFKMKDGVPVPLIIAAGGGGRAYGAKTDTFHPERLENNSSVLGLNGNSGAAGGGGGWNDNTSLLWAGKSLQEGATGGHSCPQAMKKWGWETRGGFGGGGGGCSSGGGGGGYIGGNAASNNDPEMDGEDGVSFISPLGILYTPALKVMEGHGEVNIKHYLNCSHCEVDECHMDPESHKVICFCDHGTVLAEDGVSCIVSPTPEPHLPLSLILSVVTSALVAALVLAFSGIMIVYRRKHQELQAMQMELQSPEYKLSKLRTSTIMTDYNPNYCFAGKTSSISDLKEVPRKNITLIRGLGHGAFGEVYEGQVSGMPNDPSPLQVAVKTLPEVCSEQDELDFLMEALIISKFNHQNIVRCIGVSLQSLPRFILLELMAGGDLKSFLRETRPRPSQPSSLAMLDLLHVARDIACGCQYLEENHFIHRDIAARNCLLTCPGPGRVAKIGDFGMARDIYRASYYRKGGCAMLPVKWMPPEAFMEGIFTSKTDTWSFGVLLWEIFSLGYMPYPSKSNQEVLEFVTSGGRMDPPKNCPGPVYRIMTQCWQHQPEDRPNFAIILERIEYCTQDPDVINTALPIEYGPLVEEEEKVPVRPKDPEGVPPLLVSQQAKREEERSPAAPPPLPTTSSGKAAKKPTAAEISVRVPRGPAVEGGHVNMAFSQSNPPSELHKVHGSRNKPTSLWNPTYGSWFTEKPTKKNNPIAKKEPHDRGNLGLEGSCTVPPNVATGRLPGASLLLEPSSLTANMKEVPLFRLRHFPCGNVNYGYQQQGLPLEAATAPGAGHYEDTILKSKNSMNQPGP
# measurementConditions: at 1 µM
Known inhibition of a selection of compounds
Write the value in % as a bare number.

Request: So what does the record say about inhibition for `COC(=O)c1ccc2c(c1)C(=Cc1cc(Br)c(O)c(Br)c1)C(=O)N2` ?
Response: 15

Request: Fill blank: measured inhibition of the compound `NS(=O)(=O)c1cccc(-c2cc3ccncc3cc2OCc2ccccc2)c1` is ____.
Response: 7.12

Request: Reported inhibition, compound `OCc1ccc(-c2nc(-c3ccccn3)c(-c3ccc4c(c3)OCO4)[nH]2)cc1` : ____
Response: 8.19

Request: Which inhibition is listed for `COc1cc(Nc2nccc(-c3cnn4ncccc34)n2)cc(OC)c1` ?
Response: 44.8

Request: Name the recorded inhibition for `COc1ccc(-c2nn3ncccc3c2-c2ccnc(Nc3cccc(C(F)(F)F)c3)n2)cc1` .
Response: 5.15

Request: // inhibition lookup, key: `Cc1ccc2c(-c3ccnc(Nc4cccc(C(F)(F)F)c4)n3)c(-c3ccccc3)nn2n1`
Response: 3.77

Request: What value of inhibition has been reported for the following compound? `NC(=O)c1sc(-n2cnc3ccccc32)cc1OCc1ccccc1Br`
Response: 6.94

Request: Requested read-out: inhibition. Entry: `COc1cc2ncnc(Nc3ccc(C)c(O)c3)c2cc1OC`
Response: 13.8

Request: // returns reported inhibition for input `CCS(=O)(=O)c1ccc(OC)c(Nc2nccc(N(C)c3ccc4c(C)n[nH]c4c3)n2)c1`
Response: 12.4

Request: Given `C[C@@H](Oc1cc(-n2cnc3ccc(OCC4CCN(C)CC4)cc32)sc1C(N)=O)c1ccccc1C(F)(F)F` , state its recorded inhibition.
Response: 20.8
